Test system: LOX IMVI
protocol.notes: NCI 60 human tumor cell line screen (SRB)
Format: cell-based
recorded.conditions: LOX IMVI (Melanoma); 48 h
Assign Log10LC50 to each entry below.
One number for each entry.

Kindly give each listed record's Log10LC50.
1. C[C@]1(C(=O)[C@H](Cc2ccccc2)NC(=O)[C@H](Cc2ccccc2)NC(=O)[C@H](COC(F)F)NC(=O)CN2CCOCC2)CO1
2. Cc1ncc(C(=O)N[C@@H](COC(F)F)C(=O)N[C@@H](COC(F)F)C(=O)N[C@@H](Cc2ccccc2)C(=O)[C@@]2(C)CO2)s1
3. C[C@]1(C(=O)[C@H](Cc2ccccc2)NC(=O)[C@H](COC(F)F)NC(=O)[C@H](COC(F)F)NC(=O)CN2CCOCC2)CO1
4. CC(C)C[C@H](NC(=O)[C@H](Cc1ccccc1)NC(=O)[C@H](COC(F)F)NC(=O)CN1CCOCC1)C(=O)[C@@]1(C)CO1

Output:
1: −6.35; 2: −6.16; 3: −7.10; 4: −7.10

The reported numbers originate from patent US9441012B2.
